Biological target: mTLR7 (Mus musculus, UniProt P58681)
Sequence (P58681 27-1050): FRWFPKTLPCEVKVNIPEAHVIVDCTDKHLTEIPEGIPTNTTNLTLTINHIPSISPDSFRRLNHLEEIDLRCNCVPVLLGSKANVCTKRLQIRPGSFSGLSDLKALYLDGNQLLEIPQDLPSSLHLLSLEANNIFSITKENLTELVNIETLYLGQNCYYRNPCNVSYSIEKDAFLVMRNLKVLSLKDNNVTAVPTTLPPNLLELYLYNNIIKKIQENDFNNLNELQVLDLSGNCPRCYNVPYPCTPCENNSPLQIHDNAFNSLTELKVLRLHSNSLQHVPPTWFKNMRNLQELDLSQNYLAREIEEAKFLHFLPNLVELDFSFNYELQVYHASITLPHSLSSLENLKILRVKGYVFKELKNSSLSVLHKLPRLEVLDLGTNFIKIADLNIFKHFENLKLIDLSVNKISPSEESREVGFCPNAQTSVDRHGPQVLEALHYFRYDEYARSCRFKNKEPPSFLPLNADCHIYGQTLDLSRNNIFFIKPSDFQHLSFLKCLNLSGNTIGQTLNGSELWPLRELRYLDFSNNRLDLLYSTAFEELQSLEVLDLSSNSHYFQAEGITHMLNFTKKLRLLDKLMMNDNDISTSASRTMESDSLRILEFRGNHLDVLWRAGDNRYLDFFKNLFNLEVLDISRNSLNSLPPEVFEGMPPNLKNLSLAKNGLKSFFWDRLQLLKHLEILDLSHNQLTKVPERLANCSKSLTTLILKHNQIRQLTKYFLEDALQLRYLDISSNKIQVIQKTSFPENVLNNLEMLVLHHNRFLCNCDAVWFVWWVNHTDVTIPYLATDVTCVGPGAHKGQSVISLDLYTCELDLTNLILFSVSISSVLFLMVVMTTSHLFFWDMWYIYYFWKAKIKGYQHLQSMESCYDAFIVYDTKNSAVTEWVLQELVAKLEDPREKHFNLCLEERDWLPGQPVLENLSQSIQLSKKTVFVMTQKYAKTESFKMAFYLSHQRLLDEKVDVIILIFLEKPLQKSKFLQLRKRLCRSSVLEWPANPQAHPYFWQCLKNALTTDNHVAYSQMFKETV
Experiment: Reporter Gene Assay (RGA), HEK-Blue mTLR7 reporter cells, SEAP readout
Conditions: overnight incubation, SEAP absorbance 620 nm
Output TRUE for records whose EC50 is lower than 10 nM, FALSE for records at or above 10 nM.

CCOc1nc(N)c2nc(O)n(Cc3ccc(CN4CCC(CN)CC4)cc3OC)c2n1	FALSE
CCOc1nc(N)c2nc(O)n(Cc3ccc(CN[C@H](CO)Cc4ccccc4)cc3OC)c2n1	FALSE
CCOc1nc(N)c2nc(O)n(Cc3ccc(CNCCCCN)cc3OC)c2n1	FALSE
CCCC(CO)Oc1nc(N)c2nc(O)n(Cc3ccc(CN)cc3)c2n1 (centres unmarked)	TRUE
CCOc1nc(N)c2nc(O)n(Cc3ccc(CNCCN4CCNCC4)cc3OC)c2n1	FALSE

# input Determine whether this compound shows EC50 lower than 10 nM (ties excluded): `CCCCOc1nc(N)c2nc(O)n(Cc3ccc(N4CCC(N)CC4)cc3OC)c2n1`
# output TRUE

# input Now try `CCCCOc1nc(N)c2nc(O)n(Cc3ccc(CN)cc3OC)c2n1` .
# output TRUE

# input Now try CCOc1nc(N)c2nc(O)n(Cc3ccc(CNC4CCNC4)cc3OC)c2n1 (stereo in doubt) .
# output FALSE
